Entry source: PubChem BioAssay (NCI)

# Lookup of reported TGI keyed by entry
# System: SK-MEL-28 melanoma
# MEASUREMENT_PROTOCOL: NCI tumour cell line growth inhibition, 48 h

* NC(Cc1c[nH]c2c(O)cccc12)C(=O)O (stereo unspecified) | > 100 µM

[Q] Reported TGI for CCN(CC)CCC(=O)Nc1ccc2c(c1)C(=O)c1ccc(NC(=O)CCN(CC)CC)cc1C2=O : what is it?
[A] 24.6 µM

[Q] Reported TGI for CCOC(=O)C(NC(C)=O)(Nc1ccc(F)cc1)C(F)(F)F (stereo unspecified) : what is it?
[A] > 100 µM

[Q] Reported TGI for N=c1n(C(=O)N2CCCC2)c2cc(Cl)ccc2n1C1=NCCN1 : what is it?
[A] > 100 µM

[Q] Reported TGI for C[C@@]12C[C@@H](c3ccccc3O1)N1CCCCSC1=N2 : what is it?
[A] > 100 µM

[Q] Reported TGI for COC(=O)[C@H]1CO[C@@H](C(C)(C)C)N1C(=O)N1C=CC(=O)C[C@@H]1C : what is it?
[A] > 100 µM

----------
# System: SF-268 CNS
# MEASUREMENT_PROTOCOL: NCI tumour cell line growth inhibition, 48 h
METRIC_NAME: TGI

* O=C(CCC(=O)c1ccc(Cl)cc1)NO | > 100 µM
* COc1c(C)c(C/C=C(\C)CCCCO[Si](c2ccccc2)(c2ccccc2)C(C)(C)C)c(OC)c(OC)c1OC | > 100 µM
* O=CN/C=C/c1cc(O)ccc1O | 37.5 µM
* N.N.N.N.O=[N+]([O-])[O-].[Co+3].[N-]=[N+]=[N-].[N-]=[N+]=[N-] | > 100 µM
* CC(C)CCC[C@@H](C)[C@H]1CC[C@H]2[C@@H]3CC=C4C[C@@H](C(C(=O)O)C(=O)O)CC[C@]4(C)[C@H]3CC[C@]12C | 1.65 µM
* Cc1nc(C(N)=S)sc1/C(CC(=O)C(=O)Nc1cccc2ccc(O)cc12)=N\NC(=O)c1ccncc1 | > 100 µM
* CCCCCCCCCCCCCCCCCC(CCCCCCCCCCCCCCCCC)OP(=O)(O)O | > 100 µM
* CN/N=C(/Cc1occc(=O)c1O)C(=O)Nc1ccccc1C | > 100 µM
* CCOC(=O)[C@]1(OC(C)=O)C[C@H](OC(C)=O)[C@@H](C(F)COP(=O)(OCc2ccccc2)OCc2ccccc2)O1 (some centres undefined) | > 100 µM
* Cc1ccsc1/C=N/Nc1ncccn1 | > 100 µM

Alright, here's another molecule for you.
[Q] Reported TGI for CNC(=O)OCC1=C(COC(=O)NC)C(C)N(c2ccc(OC)cc2)C1 (centres undefined) : what is it?
[A] > 100 µM

----------
# Lookup of reported TGI keyed by entry
# Test system: RPMI-8226 leukemia
# MEASUREMENT_PROTOCOL: NCI tumour cell line growth inhibition, 48 h

[Q] Reported TGI for CN/N=C(/Cc1occc(=O)c1O)C(=O)Nc1ccccc1C : what is it?
[A] > 100 µM

----------
# Tested on: HCT-116 colon
# MEASUREMENT_PROTOCOL: NCI tumour cell line growth inhibition, 48 h; in the data active means GI50 below about 0.43 µM; inactive means the rest
Hi there, use one of these labels in your reply, thanks! active, inactive

Examples with answers:
* NC(=O)c1cccc2cn(-c3ccc([C@@H]4CCCNC4)cc3)nc12 | inactive
* CCCNC1=C2CC(C)CC(OC)[C@@H](O)[C@H](C)/C=C(\C)C(OC(N)=O)C(OC)/C=C\C=C(/C)C(=O)NC(=CC1=O)C2=O (stereo partly specified) | active
* Cc1nc2ccccc2c(N)c1-c1cc(C)c2c(C)nc3ccccc3c2n1 | active
* CO[C@H](C(=O)[C@@H](O)[C@@H](C)O)[C@@H]1Cc2cc3cc(O[C@H]4C[C@@H](O[C@H]5C[C@@H](O)[C@H](O)C(C)O5)[C@H](O)C(C)O4)c(C)c(O)c3c(O)c2C(=O)[C@H]1O[C@H]1C[C@@H](O[C@H]2C[C@@H](O[C@H]3C[C@](C)(O)C(=O)C(C)O3)[C@@H](O)C(C)O2)[C@H](O)C(C)O1 (stereo partly specified) | active
* COC1=CC(=O)c2nc(-c3ccncc3)[nH]c2C1=O | inactive

[Q] Call for entry COc1cc(Cc2cnc(/N=C3\C(=O)N(CN4CCN(c5c(F)cc6c(=O)c(C(=O)O)cn(C7CC7)c6c5OC)CC4C)c4ccc(F)cc43)nc2N)cc(OC)c1OC (stereo unspecified) :
[A] inactive

----------
# Lookup of reported TGI keyed by entry
# System: CCRF-CEM leukemia
# MEASUREMENT_PROTOCOL: NCI tumour cell line growth inhibition, 48 h

- CCOC(=O)CN1C(=O)c2cccc3cc([N+](=O)[O-])cc(c23)C1=O: 1.5 µM
- CC(N)Cc1ccc(C(=O)Cl)cc1 (stereo not given): > 100 µM
- O=S(=O)(NC1=NCCN1C(=S)SN1CCn2c1nsc2=S)c1ccc(OC(F)(F)F)cc1: > 100 µM
- COc1c(C)c(C/C=C(\C)CCCCO[Si](c2ccccc2)(c2ccccc2)C(C)(C)C)c(OC)c(OC)c1OC: > 46.4 µM
- O=C(O)c1ccccc1[Se][Se]c1ccccc1C(=O)O: > 100 µM

[Q] Reported TGI for Cc1cn(C2CC(n3cc(Cn4cc(I)c(=O)[nH]c4=O)nn3)C(CO)O2)c(=O)[nH]c1=O (stereo not given) : what is it?
[A] > 100 µM

[Q] Reported TGI for CC(C)=CC(=O)C1c2cccc(O)c2C(=O)c2c(O)cc(C)cc21 (stereo not given) : what is it?
[A] > 100 µM

[Q] Reported TGI for CNC(=O)C(C)C1CCC2(C)C=CC(=O)C(C)=C2C1O (stereo not given) : what is it?
[A] > 100 µM

[Q] Reported TGI for C=C(Br)C(C)(Cl)CCC(Br)C(C)(C)Cl (stereo not given) : what is it?
[A] 44.5 µM

[Q] Reported TGI for O=C1/C(=C/c2cccc([N+](=O)[O-])c2)COc2ccc(O)cc21 : what is it?
[A] 1.85 µM

[Q] Reported TGI for Clc1ccc2c(NCCCCNc3nc(N4CCCCC4)nc4ccccc34)ccnc2c1 : what is it?
[A] 5.23 µM

[Q] Reported TGI for Clc1cc(OC2C3CC4CC(C3)CC2C4)nc(Cl)n1 (stereo not given) : what is it?
[A] 38.8 µM

[Q] Reported TGI for CCCCCCCCCCCOc1ccc(C(=O)C(=O)c2ccc(OCCCCCCCCCCC)c(OCCCCCCCCCCC)c2)cc1OCCCCCCCCCCC : what is it?
[A] > 100 µM

[Q] Reported TGI for NC(=O)c1cccc2cn(-c3ccc([C@@H]4CCCNC4)cc3)nc12 : what is it?
[A] 97.7 µM

[Q] Reported TGI for CCCCC(=O)OCC(=O)[C@]1(O)Cc2c(O)c3c(c(O)c2[C@@H](OC2CC(NC(=O)C(F)(F)F)C(O)C(C)O2)C1)C(=O)c1c(OC)cccc1C3=O (stereo not given in full) : what is it?
[A] > 73.6 µM

----------
# Tested on: UACC-257 melanoma
# MEASUREMENT_PROTOCOL: NCI tumour cell line growth inhibition, 48 h; in the data active means GI50 below about 0.43 µM; inactive means the rest
Hi there, use one of these labels in your reply, thanks! true = active, false = inactive

Examples with answers:
- O=C1CC(c2ccc3c(c2)OCO3)Nc2ccccc21 (stereo unspecified): false
- COc1cc(/C=N/NC(=O)c2ccc(C(F)(F)F)nc2Nc2ccc(Cl)cc2C)ccc1O: false

[Q] Call for entry NC(=O)c1cccc2cn(-c3ccc([C@@H]4CCCNC4)cc3)nc12 :
[A] false

[Q] Call for entry COc1ccc(-c2nc3sccn3c2/C(N)=N/C(=N)N)cc1OC :
[A] false

[Q] Call for entry CO[C@H](C(=O)[C@@H](O)[C@@H](C)O)[C@@H]1Cc2cc3cc(O[C@H]4C[C@@H](O[C@H]5C[C@@H](O)[C@H](O)C(C)O5)[C@H](O)C(C)O4)c(C)c(O)c3c(O)c2C(=O)[C@H]1O[C@H]1C[C@@H](O[C@H]2C[C@@H](O[C@H]3C[C@](C)(O)C(=O)C(C)O3)[C@@H](O)C(C)O2)[C@H](O)C(C)O1 (stereo partly specified) :
[A] true

[Q] Call for entry COC1=CC(c2ccc[nH]2)=N/C1=C\c1[nH]c(C)c(C(=O)OC(C)C)c1C :
[A] true

----------
# Tested on: SF-268 CNS
# MEASUREMENT_PROTOCOL: NCI tumour cell line growth inhibition, 48 h
# Lookup of reported GI50 keyed by entry

* CCCCOC(=O)C1OC(O[C@H]2CCC3(C)C(CCC4(C)C3CC=C3C5CC(C)(C)CCC5(C(=O)O)CC[C@]34C)C2(C)C)C(OC2OC(CO)C(O)C(O)C2O)C(OC2OC(CO)C(O)C(O)C2O)C1O (some centres undefined) | 27.7 µM
* NC(=O)c1sc(-n2cnc3ccccc32)cc1OCc1ccccc1Br | 4.98 µM
* C#Cc1ccc(-n2c(/C=C/c3ccc(C(F)(F)F)cc3)nc3ncccc3c2=O)cc1 | 2.27 µM

Alright, here's another compound for you.
[Q] Reported GI50 for NC(=O)c1cccc2cn(-c3ccc([C@@H]4CCCNC4)cc3)nc12 : what is it?
[A] 9.13 µM
